measurement_target: Voltage-gated inwardly rectifying potassium channel KCNH2 (Homo sapiens) (UniProt Q12809)
Sequence (Q12809 whole entry, looked up): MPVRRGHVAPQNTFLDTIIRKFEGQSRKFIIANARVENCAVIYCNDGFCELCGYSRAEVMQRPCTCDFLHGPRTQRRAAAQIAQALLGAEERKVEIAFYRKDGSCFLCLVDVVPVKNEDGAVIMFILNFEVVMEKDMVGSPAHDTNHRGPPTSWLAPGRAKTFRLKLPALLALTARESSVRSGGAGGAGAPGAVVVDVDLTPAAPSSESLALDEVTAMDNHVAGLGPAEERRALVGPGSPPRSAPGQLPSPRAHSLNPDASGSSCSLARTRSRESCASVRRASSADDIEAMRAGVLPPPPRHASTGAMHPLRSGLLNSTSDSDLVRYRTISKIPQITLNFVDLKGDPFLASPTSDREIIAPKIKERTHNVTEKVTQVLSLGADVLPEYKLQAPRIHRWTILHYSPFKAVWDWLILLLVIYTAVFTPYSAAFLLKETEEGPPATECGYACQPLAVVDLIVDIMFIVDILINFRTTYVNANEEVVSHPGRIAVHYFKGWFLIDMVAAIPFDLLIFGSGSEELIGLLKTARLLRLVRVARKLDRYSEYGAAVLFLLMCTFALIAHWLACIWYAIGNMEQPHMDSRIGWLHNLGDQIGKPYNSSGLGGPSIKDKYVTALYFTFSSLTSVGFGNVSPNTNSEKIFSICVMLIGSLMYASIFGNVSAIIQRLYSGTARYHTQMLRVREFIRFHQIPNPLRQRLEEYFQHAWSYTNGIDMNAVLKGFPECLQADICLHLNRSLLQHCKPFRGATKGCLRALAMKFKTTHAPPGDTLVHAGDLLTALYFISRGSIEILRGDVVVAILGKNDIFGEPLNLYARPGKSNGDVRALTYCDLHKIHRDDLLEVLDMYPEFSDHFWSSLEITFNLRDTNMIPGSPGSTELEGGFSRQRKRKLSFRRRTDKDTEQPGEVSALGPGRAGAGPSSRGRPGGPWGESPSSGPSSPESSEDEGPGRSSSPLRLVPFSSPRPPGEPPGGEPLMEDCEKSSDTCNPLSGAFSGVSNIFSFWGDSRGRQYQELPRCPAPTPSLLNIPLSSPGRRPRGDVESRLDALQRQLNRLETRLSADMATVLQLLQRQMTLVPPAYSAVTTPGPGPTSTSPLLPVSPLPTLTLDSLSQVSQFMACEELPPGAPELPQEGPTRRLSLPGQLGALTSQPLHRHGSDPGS
experiment: KCNH2 potassium channel function modulators, cell-based (AID 376);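 note: 0% = buffer alone and 100% = reference blocker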
experimental_conditions: hERG-expressing cells, channel activity single-concentration screen; concentration not given here
Screen size: about 2,000 compounds; about 250 (12%) were called active. The entries come from a sample that favours actives as a whole.
Overview of recorded hERG blockade for various compounds
measured_attribute: hERG blockade (%)

>  <compound>
CN(C)CCCC1c2ccccc2Oc2ccc(C(F)(F)F)cc21 (stereo unspecified)

>  <assay_value>
32.9

$$$$
>  <compound>
CC(C)C1OC(C=Cc2ccccc2)OCC1(C)C (stereo unspecified)

>  <assay_value>
10.1

$$$$
>  <compound>
CC1(CO)C(O)CCC2(C)C1CCC1CC3CC12CCC3(O)COC(=O)CN (stereo unspecified)

>  <assay_value>
14.2

$$$$
>  <compound>
CCn1c(CCCc2nc3c([nH]2)c(=O)n(C)c(=O)n3C)nc2c1c(=O)n(C)c(=O)n2C

>  <assay_value>
25.2

$$$$
>  <compound>
Clc1cccc(Cl)c1C(Nc1nncs1)Nc1nncs1

>  <assay_value>
-3.96

$$$$
>  <compound>
CC1OC(O)C(O)C(O)C1O (stereo unspecified)

>  <assay_value>
8.47

$$$$
>  <compound>
CC(C)CSCC1OC(n2cnc3c(N)nccc32)C(O)C1O (stereo unspecified)

>  <assay_value>
-11.9

$$$$
>  <compound>
Clc1ccc2c(NC3CCC(N4CCCCC4)CC3)ccnc2c1 (stereo unspecified)

>  <assay_value>
53.4

$$$$
>  <compound>
O=S1(=O)NC2CCC3NS(=O)(=O)NC4CCC(N1)N4S(=O)(=O)N23 (stereo unspecified)

>  <assay_value>
0.569

$$$$
>  <compound>
Clc1ccc2c(NCCNc3ccnc4cc(Cl)ccc34)ccnc2c1

>  <assay_value>
0.444

$$$$
>  <compound>
Cn1c(=O)c2[nH]c(CCCCC(=O)O)nc2n(C)c1=O

>  <assay_value>
-14.9

$$$$
